# System: dengue virus type 2
# ASSAY_EXPLANATION: Inhibition of Dengue virus 2 recombinant 6xHis-tagged NS2B/NS3 serine protease using Boc-Gly-Arg-Arg-AMC as substrate measured for 60 mins by fluorimetric analysis
PROPERTY_MEASURED: inhibition

Solved entries (count: 4):
>>> reported_measurement("CC1(C)CC(=O)C2=C(C1)c1c(ccc3ccccc13)NC2c1ccc(-c2ccc(O)c(C(=O)O)c2)o1 (stereo not given)")
"Dose-dependent effect"
>>> reported_measurement("COc1ccc(C(c2c(O)c3ccccc3oc2=O)c2c(O)c3ccccc3oc2=O)cc1COc1ccc(NC(C)=O)cc1")
"Dose-dependent effect"
>>> reported_measurement("COc1ccc(C(c2c(O)c3ccccc3oc2=O)c2c(O)c3ccccc3oc2=O)cc1CSc1nc2ccccc2s1")
"Dose-dependent effect"
>>> reported_measurement("Cc1ccc2nc(-c3ccc(NC(=O)c4c(O)c5c(n(Cc6ccco6)c4=O)CCCC5)cc3)sc2c1")
"Dose-dependent effect"

// switching to the query molecule
Please report the measured inhibition for O=c1oc2ccccc2c(O)c1C1c2ccccc2Oc2c1c(=O)oc1ccccc21 (stereo not given)
Dose-dependent effect
